assayedSystem: T1, HLA-A*0201 molecule expressed on human T2 cells (human)
T1 construct: also called HLA-A2
methodDescription: T2 cells (HLA-A*0201), peptide at 10 µM, anti-HLA-A2 flow cytometry
Would you mind telling me the reported mean relative fluorescence intensity (HIV peptide = 100) of each entry?

The cases that follow already have their mean relative fluorescence intensity (HIV peptide = 100) on record.
binder="WVFEHPETL [CD22-H1]" endpointresult="71 % of HIV pol 589-597 at 100 µM"
binder="TLAYLIFCL [CD19-H6]" endpointresult="39.6 % of HIV pol 589-597 at 100 µM"
binder="FMPGLLFGA [TNFRSF13C-B33]" endpointresult="15.5 % of HIV pol 589-597 at 100 µM"

// input: 5 binders below; output: mean relative fluorescence intensity (HIV peptide = 100) for each
1. YILGGLLMV [MS4A1-B12]
2. YLFLGILSL [MS4A1-B5]
3. LMIPAGIYA [MS4A1-H3]
4. GMAFVPLLL (also called CD37-B11i) [CD37-B11]
5. LLFGAPALL (also called TNFRSF13-H1) [TNFRSF13C-H1]

Result ::
7.6 % of HIV pol 589-597 at 100 µM
29.8 % of HIV pol 589-597 at 100 µM
35.7 % of HIV pol 589-597 at 100 µM
48.9 % of HIV pol 589-597 at 100 µM
17 % of HIV pol 589-597 at 100 µM
